Numbers sourced from ChEMBL document CHEMBL1201862.

System: UO-31
assay_comment: NCI tumour cell line growth inhibition, 48 h
Calls of active or inactive are those of the source. Cut-off read from the data, not from the text of the source: active = GI50 up to about 1.1 µM and inactive = higher.
Your response should consist of one outcome taken from active, inactive

Exercise: How did this test come out for CN1C(=O)c2c(c3c4ccccc4n(C4OC(CO)C(O)C(O)C4O)c3c3[nH]c4ccccc4c23)C1=O (stereo unspecified) ?
Solution: inactive

Exercise: Now the molecule COc1ccc(-c2cc(-c3ccccc3)[nH]c(=S)c2C#N)cc1
Solution: inactive

Exercise: Request: CCCCc1c2c([n+]([O-])c3c1CCCC3)CCCC2
Solution: inactive

Exercise: Quick one: CN(c1ccccc1Cl)S(=O)(=O)c1ccc([N+](=O)[O-])cc1
Solution: inactive

Exercise: Please do the same for C1=C(c2ccccc2)CN(c2ccccc2)OC1 as well.
Solution: inactive

Exercise: Proceed to CCC(=O)OC1CCn2c1nc1c2C(=O)C(C)=C(N2CC2)C1=O (stereo unspecified)
Solution: active

Exercise: Try CCOC(=O)/C(=C/c1ccc(Cl)cc1)N(CC)CC next.
Solution: inactive

Exercise: Can you check O=[N+]([O-])c1ccc(N2C[N+](c3ccccc3)=NC(c3ccccc3)=N2)cc1 next?
Solution: inactive

New cases:
Exercise: Outcome logged for CCCN1CCC(=O)N(CCC(F)(F)C(F)(F)C(F)(F)C(F)(F)C(F)(F)C(F)(F)F)C1=S in this assay:
Solution: inactive

Exercise: Ok, now O=C1/C(=C\c2cccc(Oc3ccccc3)c2)S(=O)(=O)C(c2ccccc2)N1c1cccc(Cl)c1 (stereo unspecified)
Solution: inactive

Exercise: And the next one, CCC(/C(=N/NC(=O)C[N+](C)(C)C)c1ccccc1)C1OC(=O)c2ccccc21 (stereo unspecified) ?
Solution: inactive

Exercise: // next record COC(=O)C(=O)C(C#N)c1ccc(CC#N)cc1 (stereo unspecified)
Solution: inactive

====

List of GI50 values.
System: EKVX
assay_comment: NCI tumour cell line growth inhibition, 48 h
Active and inactive are the calls of the source. Cut-off read from the data, not from the text of the source: active = GI50 up to about 1.1 µM and inactive = higher.

Study these solved cases before continuing.
Exercise: GI50 lookup needed for COc1cc2c(cc1OCCOS(C)(=O)=O)N=C[C@@H]1CCCN1C2=O , thanks.
Solution: 32.7 µM (inactive)

Exercise: Note, next up: CN(C)CCC(/C=C/c1ccccc1)=N\Nc1ccc(Cl)cc1Cl
Solution: 15 µM (inactive)

Exercise: // same read-out, input: COc1ccc(CCNC(=S)NC=C2C(=O)c3ccccc3C2=O)cc1OC
Solution: > 100 µM (inactive)

Exercise: Please answer likewise for CC1(C)C(=O)C(=Cc2ccco2)C1=O
Solution: > 100 µM (inactive)

---
Exercise: Any idea what its GI50 is? The compound is O=C(O)CSc1ccn(Cc2ccccc2)c1
Solution: > 100 µM (inactive)

Exercise: Similarly, CN(C)C(=S)/N=c1\ssc(=S)n1Cc1ccncc1 ?
Solution: 22.8 µM (inactive)

Exercise: Now consider Nc1ccc(C(=O)N/C(=C\c2ccc3c(c2)OCO3)c2nc3ccccc3s2)cc1 .
Solution: 12.9 µM (inactive)

Exercise: Same question, O=[N+]([O-])c1ccc2nc(/C(=N/Nc3ccccc3)C(O)c3ccc(C(O)/C(=N\Nc4ccccc4)c4nc5ccc([N+](=O)[O-])cc5nc4O)cc3)cnc2c1 (stereo not drawn) this time
Solution: > 100 µM (inactive)

Exercise: Also check CCOC(=O)c1cnc2[nH]ccn2c1=O
Solution: > 10 µM (inactive)

====

Tested on: A549
assay_comment: NCI tumour cell line growth inhibition, 48 h
The source made the active and inactive calls. Cut-off read from the data, not from the text of the source: active = GI50 up to about 1.1 µM and inactive = higher.
measurement_label: GI50

Please review the entries below; each comes with its answer.
Exercise: Reported GI50, compound CC(=O)OCC1OC(OC2CC3C(C)(C)C(OC(C)=O)CC[C@]3(C)C3CCC45CC4(CC[C@H]5C(C)CC(O)[C@@H](O)C(C)(C)O)[C@]23C)C(O)C(O)C1O (some centres undefined) : ____
Solution: 8.02 µM (inactive)

Exercise: Do the same for C/C(CCOC1CCCCO1)=C(\C)[Si](C)(C)C (centres undefined) please
Solution: > 100 µM (inactive)

Exercise: Queued: CC(=O)NC(CSC1=C2NC(=O)\C=C/C=C\C=C/C(C)C(O)CC(=O)/C(C)=C\CC(O)/C=C\C(C)C(O)C(C)C=C(C)C(=O)c3c(O)c(C)cc(c3C1=O)C2=O)C(=O)O (centres undefined)
Solution: > 100 µM (inactive)

---
Exercise: Look up GI50: COc1nc(N)nc2c1n(C)c[n+]2C
Solution: > 100 µM (inactive)

Exercise: What about this compound? C[Si](C)(C)C1=C([Si](C)(C)C)C(Cl)(Cl)C1=O
Solution: 19.8 µM (inactive)

Exercise: Ok, now Nc1ccc2c3[nH]c4cc(N)ccc4cc-3nc2c1
Solution: 0.286 µM (active)

Exercise: CN(C)C(=S)N/N=C(\C(=N/NC(=S)N(C)C)c1ccccn1)c1ccccn1 , same question.
Solution: 6.55 µM (inactive)

Exercise: Now this one: O=C(/C(=N/Nc1cn[nH]c(=O)c1Cl)c1ccccc1)c1ccccc1
Solution: 18.3 µM (inactive)

Exercise: Also COc1ccc(N2C(=O)C3CC(c4ccc(Br)cc4)c4c([nH]c5ccccc45)C3C2=O)cc1 (centres undefined) , if possible.
Solution: 2.71 µM (inactive)

Exercise: Quick one: CCN(CC)C(=S)SS(=O)(=O)c1ccc(Cl)cc1
Solution: 0.484 µM (active)

Exercise: Lookup CC(C)(CN1CCCCC1)C(=O)/C=C/c1ccc(/C=C/C(=O)C(C)(C)CN2CCCCC2)cc1
Solution: 0.933 µM (active)

Exercise: Now the same for CC1CC2C(=O)N(c3ccccc3)C(=O)C2c2c1c1ccccc1n2Cc1ccccc1 (centres undefined)
Solution: 32.1 µM (inactive)

Exercise: Repeat for the following compound: Cc1nn2c3c(nnc2c1C#N)C(=O)NN=C(N)S3
Solution: > 100 µM (inactive)

Exercise: What about this compound? O=C(Cc1ccc2ccccc2c1)NCc1ccc(C(=O)NCCc2ccccc2)cc1
Solution: > 100 µM (inactive)

====

Listing: GI50 of selected molecules
Test system: HL-60
assay_comment: NCI tumour cell line growth inhibition, 48 h
Active and inactive are the calls of the source. Rule as the data show it: active = GI50 up to about 1.1 µM and inactive = higher.

Exercise: Can you look up the measured GI50 of CN(c1ccccc1Cl)S(=O)(=O)c1ccc([N+](=O)[O-])cc1 for me?
Solution: > 100 µM (inactive)

Further cases:
Exercise: Look up GI50: c1ccc2c3c([nH]c2c1)C1(CCCCC1)c1c([nH]c2ccccc12)C31CCCCC1
Solution: > 100 µM (inactive)

Exercise: Note, next up: CC1=C(/C=C/C(C)=C/C=C/C(C)=C/C=C/C=C(C)/C=C/C=C(C)/C=C/C2=C(C)C(=O)C(O)CC2(C)C)C(C)(C)CC(O)C1=O (centres undefined)
Solution: > 100 µM (inactive)

Exercise: Check O=[N+]([O-])c1ccc2nc(/C(=N/Nc3ccccc3)C(O)c3ccc(C(O)/C(=N\Nc4ccccc4)c4nc5ccc([N+](=O)[O-])cc5nc4O)cc3)cnc2c1 (centres undefined) too.
Solution: 19.3 µM (inactive)

====

Tested on: OVCAR-4
assay_comment: NCI tumour cell line growth inhibition, 48 h
The source made the active and inactive calls. Cut-off read from the data, not from the text of the source: active = GI50 up to about 1.1 µM and inactive = higher.
Output constraint: value belongs to active, inactive

Illustrative cases are given below, each with its answer.
Exercise: In this assay, the call recorded for O=C1CC(c2cccc([N+](=O)[O-])c2)C2(C(=O)NC(=O)NC2=O)C(c2cccc([N+](=O)[O-])c2)C1 (stereo not given) was what?
Solution: inactive

Exercise: Same question, CCC(/C(=N/NC(=O)C[N+](C)(C)C)c1ccccc1)C1OC(=O)c2ccccc21 (stereo not given) this time
Solution: inactive

Exercise: Now the molecule O=C(O)CCCCCOc1cccnc1/C=N/NC1=NCCN1
Solution: inactive

As a next step, examine the molecule that follows.
Exercise: I would be grateful if you could indicate the recorded call for O=C(CCc1nnc(S)[nH]1)NC12CC3CC(CC(C3)C1)C2 .
Solution: inactive

====

Tested on: MCF7
assay_comment: NCI tumour cell line growth inhibition, 48 h
The source made the active and inactive calls. No stated cut-off is given here; in the data, active = GI50 up to about 1.1 µM and inactive = higher.
Some compounds, each annotated with its measured GI50.

Illustrative cases are given below, each with its answer.
Exercise: If you can, please state the reported GI50 value of COc1ccc(N2NC(c3ccccc3)(c3ccccc3)C(C)C2=O)cc1 (stereo not given) .
Solution: 25.5 µM (inactive)

Exercise: Next record, please: O=c1[nH]c(=O)n(C2OC(CO)C(O)C2O)c2nc(-c3ccc(-c4ccccc4)cc3)cnc12 (stereo not given)
Solution: > 100 µM (inactive)

Exercise: Also, Brc1ccc2[nH]cc(-c3csc(-c4c[nH]c5ccccc45)n3)c2c1 please.
Solution: 2.13 µM (inactive)

Exercise: Cool, now CC12CCC(C(=O)n3c1nc1ccccc13)C(C)(C)O2 (stereo not given)
Solution: > 100 µM (inactive)

Exercise: And for CCCCCCCCCCNC(=O)CCC(NC(=O)c1ccc(N(C)Cc2cnc3nc(N)nc(N)c3n2)cc1)C(=O)NCCCCCCCCCC (stereo not given) ?
Solution: 4.06 µM (inactive)

Exercise: Then this compound: CCN(CC)C(=S)N/N=C/c1cc(OC)ccc1O
Solution: 3.84 µM (inactive)

Exercise: Consider next the compound CC(=O)Oc1ccc(/C=C/C(=O)OCCCOC(=O)/C=C/c2ccc(OC(C)=O)c(OC(C)=O)c2)cc1OC(C)=O in the same way.
Solution: > 100 µM (inactive)

Exercise: Would you kindly repeat that for Nc1nc(N)c2cc(Sc3ccc4ccccc4c3)ccc2n1 ?
Solution: 1.3 µM (inactive)

Exercise: Also COc1cc(C/N=c2/nc(N(C)C)ss2)cc(OC)c1OC ?
Solution: > 5.78 µM (inactive)

Consider now this further compound.
Exercise: Entry under review: O=C(NNC(=O)c1ccccc1O)c1ccco1 . Reported GI50?
Solution: > 100 µM (inactive)
